Tested on: ZIKV replicon in Vero cells
Assay: ZIKV Replication Inhibition Assay (replicon, NanoLuc)
Conditions: Zika virus, Vero, 72 h, read-out: Zika Replicon EC50
# maps each entry to its EC50

Check out these entries, answers already filled in.
Cc1ncnc(C)c1-c1ccc(C[n+]2cc([N-]C(=O)Nc3cccc(C(F)(F)F)c3)on2)cc1: < 100 nM
C[C@H](Cc1ccccc1)[n+]1cc([N-]C(=O)Nc2cccc(C(F)(F)F)c2)on1: 1000 to 20000 nM
C[C@@H](c1ccc(-c2cncnc2)cc1)[n+]1cc([N-]C(=O)Nc2cncc(C(F)(F)F)c2)on1: 100 to 1000 nM
O=C([N-]c1c[n+](Cc2ccc(I)cc2)no1)Nc1cncc(C(F)(F)F)c1: 100 to 1000 nM

# ---- query molecule ----
Sure, the documented EC50 for COc1nccc(C)c1-c1ccc(C[n+]2cc([N-]C(=O)Nc3cccc(C(F)(F)F)c3)on2)nc1 is < 100 nM

Source listed as patent US20250353853A1.
